# subject-of-test: Muscarinic acetylcholine receptor M3 (Homo sapiens, UniProt P20309)
# Sequence (P20309 whole entry): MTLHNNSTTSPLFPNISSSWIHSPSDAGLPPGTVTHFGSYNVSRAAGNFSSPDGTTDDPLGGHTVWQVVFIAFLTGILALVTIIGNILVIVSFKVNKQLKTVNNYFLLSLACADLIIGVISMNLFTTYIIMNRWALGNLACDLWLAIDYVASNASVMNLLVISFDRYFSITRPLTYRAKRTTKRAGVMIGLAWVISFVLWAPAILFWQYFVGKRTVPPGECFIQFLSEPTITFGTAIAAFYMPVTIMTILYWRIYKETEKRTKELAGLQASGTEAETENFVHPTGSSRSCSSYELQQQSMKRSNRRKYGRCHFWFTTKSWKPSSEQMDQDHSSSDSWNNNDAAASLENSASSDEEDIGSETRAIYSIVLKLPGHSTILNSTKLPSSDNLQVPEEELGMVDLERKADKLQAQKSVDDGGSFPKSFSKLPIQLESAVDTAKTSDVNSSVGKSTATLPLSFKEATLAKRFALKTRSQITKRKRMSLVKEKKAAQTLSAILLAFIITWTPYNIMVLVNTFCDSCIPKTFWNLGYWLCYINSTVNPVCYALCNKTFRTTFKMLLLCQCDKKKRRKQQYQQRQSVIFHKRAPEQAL
measurement-label: Ki (nM)
# unit: nM | format: bare number

stdin: Consider the molecule C(#Cc1ccccc1)COc1nsnc1C1CN2CCC1CC2 (stereo not drawn) and give its recorded Ki.
stdout: 77.6

stdin: Consider the molecule C(#Cc1cccc(C#CCOc2nsnc2C2CN3CCC2CC3)c1)COc1nsnc1C1CN2CCC1CC2 (stereo not drawn) and give its recorded Ki.
stdout: 8.13

stdin: Consider the molecule C(#Cc1ccc(C#CCOc2nsnc2C2CN3CCC2CC3)cc1)COc1nsnc1C1CN2CCC1CC2 (stereo not drawn) and give its recorded Ki.
stdout: 4.68

====

# subject-of-test: Muscarinic acetylcholine receptor M2 (Homo sapiens, UniProt P08172)
# Sequence (P08172 whole entry): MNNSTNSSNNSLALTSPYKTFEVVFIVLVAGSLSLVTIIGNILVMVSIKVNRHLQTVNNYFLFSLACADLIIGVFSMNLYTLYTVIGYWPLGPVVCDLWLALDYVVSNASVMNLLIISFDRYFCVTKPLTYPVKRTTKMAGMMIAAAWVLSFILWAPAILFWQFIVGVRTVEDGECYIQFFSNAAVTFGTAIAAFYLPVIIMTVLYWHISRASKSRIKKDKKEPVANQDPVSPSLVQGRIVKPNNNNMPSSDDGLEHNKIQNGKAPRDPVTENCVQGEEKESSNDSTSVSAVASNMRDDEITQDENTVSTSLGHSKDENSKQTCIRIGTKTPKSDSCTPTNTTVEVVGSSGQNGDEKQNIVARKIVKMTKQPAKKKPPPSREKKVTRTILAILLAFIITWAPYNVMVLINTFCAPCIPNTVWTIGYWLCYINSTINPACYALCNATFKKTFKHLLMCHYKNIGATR
measurement-label: pKi
In plain terms, pKi is the concentration in mol/L turned into minus its base-10 logarithm.

stdin: Consider the compound C(#Cc1ccccc1)COc1nsnc1C1CN2CCC1CC2 (stereo not drawn) and give its recorded pKi.
stdout: 7.23

stdin: Consider the compound C(#Cc1cccc(C#CCOc2nsnc2C2CN3CCC2CC3)c1)COc1nsnc1C1CN2CCC1CC2 (stereo not drawn) [NNC 11-1607] and give its recorded pKi.
stdout: 8.24

stdin: Consider the compound C(#Cc1ccc(C#CCOc2nsnc2C2CN3CCC2CC3)cc1)COc1nsnc1C1CN2CCC1CC2 (stereo not drawn) [NNC 11-1585] and give its recorded pKi.
stdout: 10.10
